Where do the numbers come from? From ChEMBL document CHEMBL2010736.

# SYSTEM_UNDER_TEST: Adenosine receptor A3 (Homo sapiens, UniProt P0DMS8)
# Sequence (P0DMS8 whole entry): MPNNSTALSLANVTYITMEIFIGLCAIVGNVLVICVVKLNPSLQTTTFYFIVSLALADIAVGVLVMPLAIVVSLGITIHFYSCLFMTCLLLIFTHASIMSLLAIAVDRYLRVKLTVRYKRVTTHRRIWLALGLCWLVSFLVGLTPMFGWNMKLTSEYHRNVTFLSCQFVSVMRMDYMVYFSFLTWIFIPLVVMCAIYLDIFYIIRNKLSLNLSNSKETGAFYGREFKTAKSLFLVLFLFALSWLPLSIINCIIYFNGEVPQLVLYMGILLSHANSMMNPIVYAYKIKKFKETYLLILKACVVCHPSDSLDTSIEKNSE
# ASSAY_NOTES: Displacement of [125I]AB-MECA from human recombinant adenosine receptor-3 expressed in CHO cell membrane after 60 mins by gamma-counting
pKi: −log10 of the molar value.
OBSERVABLE: pKi

Query block: For CCOc1ccccc1CNc1nc(Cl)nc2c1ncn2[C@H]1[C@H](O)[C@H](O)[C@@H]2C[C@@H]21 , what is its reported pKi?
Result block: 7.82

Query block: Also O[C@@H]1[C@H](O)[C@@H]2C[C@@H]2[C@H]1n1cnc2c(NCc3cccc(OCCF)c3)nc(Cl)nc21 , if possible.
Result block: 6.94

Query block: Also O[C@@H]1[C@H](O)[C@@H]2C[C@@H]2[C@H]1n1cnc2c(N[C@H]3C[C@H]4CC[C@H]3C4)nc(Cl)nc21 , if possible.
Result block: 6.50

1 = COc1ccc(F)c(F)c1CNc1nc(Cl)nc2c1ncn2[C@H]1[C@H](O)[C@H](O)[C@@H]2C[C@@H]21
2 = O[C@@H]1[C@H](O)[C@@H]2C[C@@H]2[C@H]1n1cnc2c(NCc3cc(F)ccc3F)nc(Cl)nc21
3 = COc1cc(F)c(F)cc1CNc1nc(Cl)nc2c1ncn2[C@H]1[C@H](O)[C@H](O)[C@@H]2C[C@@H]21
4 = O[C@@H]1[C@H](O)[C@@H]2C[C@@H]2[C@H]1n1cnc2c(N[C@@H]3C[C@H]4CC[C@H]3C4)nc(Cl)nc21
Query block: Rank ascending by pKi. Order the labels as requested and give them as your answer.
Result block: 4, 1, 3, 2
(4: 6.63, 1: 7.08, 3: 7.39, 2: 7.78)
